quantityKind: melting point

Here are 5 compounds together with their reported answers.
- compound: "Cc1ccc2c(c1)c1cc(-c3ccc(Cl)cc3Cl)c(=O)n(C)c1n2CCCN1C(=O)c2ccccc2C1=O"
  melting point: "249 °C"
- compound: "O=C(CCCCl)Nc1cccc(-c2ccnc3c(C(=O)c4cccs4)cnn23)c1"
  melting point: "97 to 100 °C"
- compound: "COc1ccc(C)cc1NC(=O)Nc1ccc(N2CCN(C(=O)Nc3ccc(OCCO)cc3Cl)C(C)C2)cc1 (stereo unspecified)"
  melting point: "129 to 131 °C"
- compound: "COc1cccc2c3c(c(=O)[nH]c12)CCN3c1ccccc1C"
  melting point: "166 to 168 °C"
- compound: "Cc1[nH]c(S(C)(=O)=O)nc1-c1cc(C(C)(C)C)c(O)c(C(C)(C)C)c1"
  melting point: "235 to 237 °C"

// moving on: another record for melting point
The recorded melting point for `Cc1ccc(S(=O)(=O)N(Cc2ccccc2)N=O)cc1` is 92 to 93 °C

###

Quick list: melting point per entry.

Here are 4 compounds together with their reported answers.
- compound: "CCOCCCc1ccc(Oc2ccc3c(c2)C=C(C(=O)OC)CCS3(=O)=O)cc1"
  melting point: "93 to 94 °C"
- compound: "CCCCCCCCCCCCNC(=O)COc1ccc(O)cc1[N+](=O)[O-]"
  melting point: "150 to 151 °C"
- compound: "CCC(C)(O/N=C(\\C(=O)O)c1csc(NC(c2ccccc2)(c2ccccc2)c2ccccc2)n1)C(=O)OC(C)(C)C (stereo not drawn)"
  melting point: "163 to 164 °C"
- compound: "O=Cc1ccc(C(F)(F)F)cc1[N+](=O)[O-]"
  melting point: "63 °C"

The recorded melting point for `CCOC(=O)c1cnc(N2CCN(Cc3ccccc3)CC2)nc1C(=O)OCC` is 66 °C

The recorded melting point for COc1ccc(F)cc1C(C)(C)CC(O)(Cc1ccc(C(C)=NO)cc1Cl)C(F)(F)F (stereo not drawn) is 136 to 138 °C

The recorded melting point for `O=C(NCc1ccc(Cl)cc1)c1cnc2cccc(O)c2c1O` is 235 to 238 °C

The recorded melting point for `CN(C1CCN(Cc2ccccn2)CC1)S(=O)(=O)c1ccc(Nc2nccc(Nc3ccc(F)cc3)n2)cc1` is 202 to 204 °C

The recorded melting point for `Clc1cc(Cl)cc(-c2n[nH]cc2I)c1` is 170 °C

The recorded melting point for CC(C(=O)O)c1ccc(C(=O)c2ccco2)cc1 (stereo not drawn) is 86 to 88 °C

The recorded melting point for `COc1cc2[nH]c3c(c2cc1OC)CC(=CC1CCN(Cc2ccccc2)CC1)C3=O` is 244 to 245 °C

The recorded melting point for CCOC(=O)C1(C)OC(C)=C(O)C1=O (stereo not drawn) is 89.2 to 89.5 °C

The recorded melting point for `COc1cc(N)c(Cl)cc1C(=O)NCC1CCN(CCCCCNCc2cccs2)CC1` is 67 to 69 °C

The recorded melting point for `CCC1(CC)c2cc(-c3ccc4c(c3)C(CC)(CC)c3cc(N(c5ccccc5)c5ccccc5)ccc3-4)ccc2-c2ccc(-c3nc4ccccc4s3)cc21` is 217 to 218 °C

The recorded melting point for `Cc1cc(SCCc2ccc(-c3ccc(C(F)(F)F)cc3)cc2)ccc1OCC(=O)O` is 132 to 134 °C

The recorded melting point for `CC(C)(C)OC(=O)Nc1ccc(-c2c[nH]c(=O)cn2)cc1` is 267 to 269 °C

The recorded melting point for Cc1noc(C)c1CN1CC2(COc3cc4c(cc32)OCO4)c2ccccc21 (stereo not drawn) is 165 to 167 °C

The recorded melting point for `CCNCCn1c(-c2ccc(Br)cc2)cc2c1CCSC2` is 84 to 85 °C
